Data provenance is patent US9586931B2.

EXPERIMENTAL SYSTEM: recombinant human GST-Syk (Homo sapiens, UniProt P43405)
Construct: purchased Carna Biosciences 08-176
EXPERIMENT SUMMARY: Homogeneous Time-Resolved Fluorescence (HTRF) assay for the recombinant human Syk enzyme
Format: biochemical
CONDITION DETAILS: recombinant human GST-Syk 5 pM, ATP 25 μM, 10-dose titration 10 μM to 0.508 nM; read-out: rhSYK Activity IC50
VALUE TYPE: pIC50
Please note pIC50 is a logarithmic value: minus log10 of concentration in mol/L. Answer with that number alone.

If you can, please state the reported pIC50 value of Cc1cc(Nc2cc(C(F)(F)F)ccn2)nc(-c2cn(CC3(O)CCC(C(=O)O)C(C)(C)C3)nn2)c1 (centres unmarked) [Example 3.5] . 7.15

Another: Cc1cc(Nc2nccc(C(F)F)n2)cc(-c2cn(CC3CNC(=O)C3)nn2)c1 (single isomer, unassigned) [Example 28.2] 8.27

Next:
If you can, please state the reported pIC50 value of CCOC(=O)C1(n2cc(-c3cc(C)cc(Nc4cc(C(F)(F)F)ccn4)n3)nn2)CCC1 . 7.14

Another: Cc1cc(Nc2nccc(C(F)(F)F)n2)cc(-n2cc(C3(O)CCC(C(=O)O)C(C)(C)C3)nn2)c1 (centres unmarked) [Example 15.1] 8.19

Another: Cc1cc(Nc2cc(C(F)(F)F)ccn2)nc(-c2cn(C3CNCC3O)nn2)c1 (racemic) [Example 5.22] 7.70

Another: Cc1cc(Nc2nccc(C(F)(F)F)n2)cc(-c2cn(CC(=O)N3[C@@H](C)COC[C@@H]3C)nn2)c1 (relative stereo) 7.10

Another: Cc1cc(Nc2cc(C(F)(F)F)ccn2)nc(-c2cn(CC(O)C(F)(F)F)nn2)c1 (racemic) 8.36

Another: Cc1cc(Nc2cc(C(F)F)ccn2)nc(-c2cn(CC(C)(O)CC#N)nn2)c1 (single isomer, unassigned) [Example 23.2] 8.05

Another: Cc1cc(Nc2nccc(C(F)F)n2)cc(-c2cn(C(C)C(C)(O)CO)nn2)c1 (single isomer, unassigned) [Example 30.4] 7.94

Another: Cc1cc(Nc2nccc(C)n2)cc(-c2cn(CC(C)(O)C(C)(C)O)nn2)c1 (centres unmarked) [Example 21.21] 6.72

Another: CCOC(=O)C(O)C(O)Cn1cc(-c2cc(C)cc(Nc3cc(C(F)(F)F)ccn3)n2)nn1 (centres unmarked) 7.48
